Source of measurements: patent US20260234276A1

biological target: pm6 (human, sulfated tyrosines at Y16 and Y17); assay: ELISA on coated peptide [cont.]
Sequence (peptide, as listed by the source): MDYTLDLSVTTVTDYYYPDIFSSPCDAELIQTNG
readout label: binding result

[[record]]
binder = "3-23 (antibody, V domains shown) VH: QVQLVETGGGLVRPGNSLKLSCVISGFTFSNYRIHWLRQPPGKRLEWIAVITVKSDNYEANYAESVKGRFTISRDDSKSSVYLQMNRLREEDTATYYCSRPDGFSPFVYWGQGTLVTVSA VL: DIKMTQSPSSMYASLGERVTITCKASQDINNYLSWFQQKPGKSPKTLIYRADRLVDGVPSRFSGSGSGQDYSLTISSLDYEDMGIYYCLQYAEFPPTFGAGTKLELK"
readout_label = "binding result"
result = "binds"

[[record]]
binder = "3-49 (antibody, V domains shown) VH: EVQLQQSGPELVKPGASVKISCKTSGYTFTEYTMHWVKQSHGKSLEWIGGINPNNGDTNYNQKFMGKATLTVDKSSSTAYMELRSLTSEDSAVYYCVRRLLRRGAMDYWGQGTSVTVSS VL: DIVLTQSPASLAVSLGQRATISCRASENVEYYGTSLMQWFQQKPGQPPKLLIYAASNVDSGVPARFSGSGSGTDFSLNIHPVEEDDIAMYFCQQSRKVPWTFGGGTKLDIK"
readout_label = "binding result"
result = "binds"

[[record]]
binder = "3-40 (antibody, V domains shown) VH: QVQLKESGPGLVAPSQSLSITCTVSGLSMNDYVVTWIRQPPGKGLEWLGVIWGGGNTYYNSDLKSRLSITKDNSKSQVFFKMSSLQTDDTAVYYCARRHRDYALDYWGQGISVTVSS VL: ENVLTQSPAIMSASPGEKVTMTCRASSSVSSSYLHWYQQKSGASPKLWIYSTSNLASGVPARFSGSGSGTSYSLTISSVEAEDAATYYCQQYSGYPYTFGGGTKLEIK"
readout_label = "binding result"
result = "binds"

